Values from patent US11236129B2

Assign logD to each entry below.
# Assay Details: Isoelectric point, log D and log P (SiriusT3)
# Format: physicochemical
# Condition Label: pH 7.4, Log D (7.4)
Residues, ends and D or L forms follow the SMILES beside them.
Numbers only.

Query block: # query: logD of entry CC[C@H](C)[C@H](NC(C)=O)C(=O)N[C@@H](Cc1c[nH]cn1)C(=O)N[C@H](C(=O)N[C@H](C(=O)N[C@H](C(=O)N1CCC[C@H]1C(=O)N[C@@H](C)C(=O)N[C@@H](CC(=O)O)C(=O)N[C@@H](CC(C)C)C(=O)N[C@@H](Cc1c[nH]c2ccccc12)C(=O)N[C@@H](CC(=O)O)C(=O)N[C@@H](Cc1c[nH]c2ccccc12)C(=O)N[C@H](C(=O)N[C@@H](CC(N)=O)C(=O)N[C@@H](CCC(=O)O)C(N)=O)[C@@H](C)CC)[C@@H](C)CC)[C@@H](C)O)C(C)C [SEQ ID NO: 12, IHVTIPADLWDWINE] (Ac-IHVTIPADLWDWINE-NH2)
Result block: -5.24

Could you now look at the following molecule, please?
Query block: # query: logD of entry CC[C@H](C)[C@H](NC(C)=O)C(=O)N[C@@H](Cc1c[nH]cn1)C(=O)N[C@H](C(=O)N[C@H](C(=O)N[C@H](C(=O)N1CCC[C@H]1C(=O)N[C@@H](C)C(=O)N[C@@H](CC(=O)O)C(=O)N[C@@H](CC(C)C)C(=O)N[C@@H](Cc1ccc(O)cc1)C(=O)N[C@@H](CC(=O)O)C(=O)N[C@@H](Cc1c[nH]c2ccccc12)C(=O)N[C@H](C(=O)N[C@@H](CC(N)=O)C(=O)N[C@@H](CCCCN)C(N)=O)[C@@H](C)CC)[C@@H](C)CC)[C@@H](C)O)C(C)C [SEQ ID NO: 6] (Ac-IHVTIPADLYDWINK-NH2)
Result block: -3.65

###

Assign IC50 to each entry below.
# Target Under Test: IL-17RA/IL17RC dimerization induced by IL-17A (Homo sapiens, UniProt Q16552)
# Sequence (Q16552 24-155): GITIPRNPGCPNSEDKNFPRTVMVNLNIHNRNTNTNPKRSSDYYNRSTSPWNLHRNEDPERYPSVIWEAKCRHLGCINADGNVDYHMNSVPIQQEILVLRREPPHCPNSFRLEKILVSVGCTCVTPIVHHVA
# Assay Details: IL-17RA/IL17RC dimerization assay in response to IL-17A (PathHunter Cytokine Receptor Assay)
# Format: cell-based
# Condition Label: IL-17A at EC80; read-out: IC50 in IL-17RA/IL7RC dimerization assay
Residues, ends and D or L forms follow the SMILES beside them.

The cases that follow already have their IC50 on record.
Query block: # query: IC50 of entry CC[C@H](C)[C@H](NC(C)=O)C(=O)N[C@@H](Cc1c[nH]cn1)C(=O)N[C@@H](C)C(=O)N[C@H](C(=O)N[C@H](C(=O)N1CCC[C@H]1C(=O)N[C@@H](C)C(=O)N[C@@H](CC(=O)O)C(=O)N[C@@H](CC(C)C)C(=O)N[C@@H](Cc1c[nH]c2ccccc12)C(=O)N[C@@H](CC(=O)O)C(=O)N[C@@H](Cc1c[nH]c2ccccc12)C(=O)N[C@H](C(=O)N[C@@H](CC(N)=O)C(=O)N[C@@H](CCCCN)C(N)=O)[C@@H](C)CC)[C@@H](C)CC)[C@@H](C)O [SEQ ID NO: 167] (Ac-IHATIPADLWDWINK-NH2)
Result block: < 10 µM

Query block: Try this molecule next: CC[C@H](C)[C@H](NC(C)=O)C(=O)N[C@@H](Cc1c[nH]cn1)C(=O)N[C@H](C(=O)N[C@H](C(=O)N[C@H](C(=O)N1CCC[C@H]1C(=O)N[C@@H](CC(C)C)C(=O)N[C@@H](CC(=O)O)C(=O)N[C@@H](CC(C)C)C(=O)N[C@@H](Cc1c[nH]c2ccccc12)C(=O)N[C@@H](CC(=O)O)C(=O)N[C@@H](Cc1c[nH]c2ccccc12)C(=O)N[C@H](C(=O)N[C@@H](CC(N)=O)C(=O)N[C@@H](CCCCN)C(N)=O)[C@@H](C)CC)[C@@H](C)CC)[C@@H](C)O)C(C)C [SEQ ID NO: 193] (Ac-IHVTIPLDLWDWINK-NH2)
Result block: < 10 µM

More entries:
Query block: # query: IC50 of entry CC[C@H](C)[C@H](NC(C)=O)C(=O)N[C@@H](CCSC)C(=O)N[C@H](C(=O)N[C@H](C(=O)N[C@H](C(=O)N1CCC[C@H]1C(=O)N[C@@H](C)C(=O)N[C@@H](CC(=O)O)C(=O)N[C@@H](CC(C)C)C(=O)N[C@@H](Cc1c[nH]c2ccccc12)C(=O)N[C@@H](CC(=O)O)C(=O)N[C@@H](Cc1c[nH]c2ccccc12)C(=O)N[C@H](C(=O)N[C@@H](CC(N)=O)C(=O)N[C@@H](CCCCN)C(N)=O)[C@@H](C)CC)[C@@H](C)CC)[C@@H](C)O)C(C)C [SEQ ID NO: 3] (Ac-IMVTIPADLWDWINK-NH2)
Result block: < 0.4 µM

###

Assign IP (isoelectric point) to each entry below.
# Assay Details: Isoelectric point, log D and log P (SiriusT3)
# Format: physicochemical
# Condition Label: 25±1° C., 0.15 M KCl
Residues, ends and D or L forms follow the SMILES beside them.
Give bare numbers.

The cases that follow already have their IP (isoelectric point) on record.
Query block: # query: IP (isoelectric point) of entry CC(=O)N[C@H](C(=O)N[C@@H](Cc1c[nH]cn1)C(=O)N[C@H](C(=O)N[C@H](C(=O)N[C@@H](Cc1ccccc1)C(=O)N1CCC[C@H]1C(=O)N[C@@H](C)C(=O)N[C@@H](CC(=O)O)C(=O)N[C@@H](CC(C)C)C(=O)N[C@@H](Cc1c[nH]c2ccccc12)C(=O)N[C@@H](CCC(=O)O)C(=O)N[C@@H](Cc1c[nH]c2ccccc12)C(=O)N[C@H](C(=O)N[C@@H](CCCNC(=N)N)C(=O)N[C@@H](CCCNC(=N)N)C(N)=O)C(C)C)[C@@H](C)O)C(C)C)C(C)C [SEQ ID NO: 114] (Ac-VHVTFPADLWEWVRR-NH2)
Result block: 8.99

Query block: Try this molecule next: CC[C@H](C)[C@H](NC(C)=O)C(=O)N[C@@H](Cc1c[nH]cn1)C(=O)N[C@H](C(=O)N[C@H](C(=O)N[C@H](C(=O)N1CCC[C@H]1C(=O)N[C@@H](C)C(=O)N[C@@H](CC(=O)O)C(=O)N[C@@H](CC(C)C)C(=O)N[C@@H](Cc1ccc(O)cc1)C(=O)N[C@@H](CC(=O)O)C(=O)N[C@@H](Cc1c[nH]c2ccccc12)C(=O)N[C@H](C(=O)N[C@@H](CC(N)=O)C(=O)N[C@@H](CCCCN)C(N)=O)[C@@H](C)CC)[C@@H](C)CC)[C@@H](C)O)C(C)C [SEQ ID NO: 6] (Ac-IHVTIPADLYDWINK-NH2)
Result block: 5.14

Could you now look at the following molecule, please?
Query block: # query: IP (isoelectric point) of entry CC[C@H](C)[C@H](NC(C)=O)C(=O)N[C@@H](CCSC)C(=O)N[C@H](C(=O)N[C@H](C(=O)N[C@H](C(=O)N1CCC[C@H]1C(=O)N[C@@H](C)C(=O)N[C@@H](CC(=O)O)C(=O)N[C@@H](CC(C)C)C(=O)N[C@@H](Cc1c[nH]c2ccccc12)C(=O)N[C@@H](CC(=O)O)C(=O)N[C@@H](Cc1c[nH]c2ccccc12)C(=O)N[C@H](C(=O)N[C@@H](CC(N)=O)C(=O)N[C@@H](CCCCN)C(N)=O)[C@@H](C)CC)[C@@H](C)CC)[C@@H](C)O)C(C)C [SEQ ID NO: 3] (Ac-IMVTIPADLWDWINK-NH2)
Result block: 3.90
